Tested on: femoral artery
protocol: Vasodilator activity, femoral artery (technique of perfused paw)
Format: in vivo
Parameters: key: O: no action; +: slight activity; ++: effect equal to half the effect of papaverine; +++: effect equal to that of papaverine; ++++: effect higher than that of papaverine
protocol_conditions: intra-arterial, 30 mg/kg, anaesthetized dog, vs papaverine at same dose
property_measured: VASODILATOR ACTIVITY

>  <molecule>
CC(NCCOc1ccc(Cl)cc1)C(O)c1ccc2c(c1)CCCS2 (stereo not shown) [No 40]

>  <property_measured>
VASODILATOR ACTIVITY

>  <assay_result>
+++

$$$$
>  <molecule>
COc1ccc(OCCNC(C)C(O)c2ccc3c(c2)CCCS3)cc1 (stereo not shown) [No 53]

>  <property_measured>
VASODILATOR ACTIVITY

>  <assay_result>
+++

$$$$
>  <molecule>
CCC(=O)OC(c1ccc2c(c1)CCS2)C(C)NCCCCc1ccccc1 (stereo not shown) [No 118]

>  <property_measured>
VASODILATOR ACTIVITY

>  <assay_result>
++

$$$$
>  <molecule>
COC(=O)c1ccc(OCCNC(C)C(O)c2ccc3c(c2)CCCS3)cc1 (stereo not shown) [No 114]

>  <property_measured>
VASODILATOR ACTIVITY

>  <assay_result>
+++

$$$$
>  <molecule>
CCCCOCCCNC(C)C(O)c1ccc2c(c1)CCCS2 (stereo not shown) [No 50]

>  <property_measured>
VASODILATOR ACTIVITY

>  <assay_result>
+++

$$$$

Now examine the next entry.
For record CC(NCC(c1ccccc1)c1ccccc1)C(O)c1ccc2c(c1)CCCS2 (stereo not shown) [No 21] the listed VASODILATOR ACTIVITY is +++
